- assayName: viability loss in HEK293T kidney cells – cell-based, ATP luminescence, cherry-pick, set 6, cytotoxicity control, dose response (AID 1053126)
- testParameters: CellTiter-Glo ATP luminescence, 72 h; series mostly up to 26 µM
Results with a measured potency or affinity are listed apart. Calls of active or inactive are those of the source.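 The calls were made as follows: active = cell killing with a fitted half-effect concentration at or below twice the top valid dose; inconclusive = flat curve with 30 to 70 percent drop, or poor fit; inactive = the rest.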
quantityName: outcome

* CCn1c2ccccc2c(=O)c2ccccc21 | inactive
* Nn1c(SCC(=O)N2CCCC2)nnc1-c1cccs1 | inactive
* COc1ccc(CCN=C(N)NS(=O)(=O)c2ccc(F)cc2)cc1 | inactive
* CCOc1ccc2nc(NCCCNS(=O)(=O)c3ccc(F)cc3)c(C#N)cc2c1 | inactive
* Cc1ccc(NC(=O)Nc2ccnc(-c3cccnc3)n2)cc1 | inactive

Below is a list of compounds. For each, state its recorded outcome.
1. O=C(NNc1cc(N2CCCC2)nc(N2CCCC2)n1)c1ccc([N+](=O)[O-])cc1
2. CCOC(=O)c1cc(-c2ccccc2)sc1NC(=O)CSc1nnc(N)s1
3. NC(=O)c1cc([N+](=O)[O-])ccc1NCc1cccnc1
4. CCOC1=NN(c2ncc(C(F)(F)F)cc2Cl)C(=O)C1
5. N#CC1=C(N)OC2=C(C(=O)CCC2)C1c1cc2c(cc1Br)OCO2 (centres undefined)

OUT:
1: inactive; 2: inactive; 3: inactive; 4: inactive; 5: inactive

Below is a list of compounds. For each, state its recorded outcome.
1. Cc1c(Nc2c3ccccc3nc3ccccc23)c(=O)n(-c2ccccc2)n1C
2. O=c1[nH]c2ccccc2nc1/C=C/c1ccccc1
3. Cc1oc(/N=C/c2ccc(O)cc2O)c(C#N)c1C
4. [O-]/[N+](=C/c1ccccc1)c1ccccc1
5. O=C(Nc1ccc2c(c1)OCCO2)c1ccc(NC(=O)C2CCCO2)cc1 (centres undefined)
6. Cc1cccn2c(=O)c3cc(C(N)=S)c(=N)n(CCCOC(C)C)c3nc12
7. CCOc1ccc2nc(NCCCNS(=O)(=O)c3ccc(C)cc3)c(C#N)cc2c1
8. Nc1cccc2c1C(=O)N(c1ccccc1)C2=O

OUT:
["inactive", "inactive", "inactive", "inactive", "inactive", "inactive", "inactive", "inactive"]

Below is a list of compounds. For each, state its recorded outcome.
1. CSCCC1(C(=O)O)NC(c2ccccc2O)C2C(=O)N(C(C)C)C(=O)C21 (centres undefined)
2. O=C(O)c1cccc(NC(=O)c2cn(-c3ccccc3)nc2-c2cccc(Br)c2)c1
3. O=C(CCCN1C(=O)CSc2ncccc21)N1CCN(Cc2ccccc2)CC1
4. O=C1c2ccccc2S(=O)(=O)c2cc(N3CCC(C(=O)N4CCCCC4)CC3)ccc21

OUT:
["inactive", "inactive", "inactive", "inactive"]

Below is a list of compounds. For each, state its recorded outcome.
1. Cc1noc(C)c1-c1ccc(C(=O)NCCc2ccccc2)c2occc12
2. O=C(O)c1[nH]c2ccccc2c1C(c1cc(Br)ccc1O)c1c(C(=O)O)[nH]c2ccccc12

OUT:
["inactive", "inactive"]

---

- assayName: viability loss in HEK293T kidney cells – cell-based, ATP luminescence, cherry-pick, set 6, cytotoxicity control, dose response (AID 1053126)
- testParameters: CellTiter-Glo ATP luminescence, 72 h; series mostly up to 26 µM
Measured potencies and affinities stand elsewhere. The source made the active and inactive calls.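 The calls were made as follows: active = cell killing with a fitted half-effect concentration at or below twice the top valid dose; inconclusive = flat curve with 30 to 70 percent drop, or poor fit; inactive = the rest.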
quantityName: outcome

Consider the reported outcome for these compounds:
• N#Cc1c2ccc(OCC(N)=O)cc2n2ccccc12 = inactive
• Cc1ccc2nc3c(cc(C(=O)NCc4ccccc4)c(=N)n3CCCn3ccnc3)c(=O)n2c1 = inactive
• O=C(Cn1ccc([N+](=O)[O-])n1)N1CCCCCC1 = inactive
• Clc1cccc(CN2CCN(Cc3nc(CCc4ccccc4)no3)CC2)c1 = inactive
• O=c1oc2cc(O)ccc2cc1S(=O)(=O)c1ccccc1 = inactive
• Cc1ccc(-n2nnnc2CNC(=O)C(=O)c2c[nH]c3ccccc23)cc1C = inactive

Below is a list of compounds. For each, state its recorded outcome.
1. CCn1c(=N)c(S(=O)(=O)c2ccccc2)cc2c(=O)n3ccccc3nc21
2. N#Cc1c(NCCCO)nc(NCc2ccccc2)c2c1CCN(Cc1ccccc1)C2
3. O=C(O)c1ccc(N/N=C/c2ccc(-c3ccccc3Cl)o2)cc1
4. CN1CCc2c(sc(NC(=O)Cc3ccccc3)c2C#N)C1

OUT:
["inactive", "inactive", "inactive", "inactive"]
